# System: wild oat
# Test Protocol: Test B postemergence herbicide test
# Type: in vivo, Avena fatua
# Condition Parameters: postemergence, 500 g ai/ha; scale 0 to 100, 0 is no effect, 100 is complete control
Measurement Type: Oat, Wild plant response rating

{"Compound": "C#CCOC(=O)c1cccc(NC(=O)c2cc(C(C)(C)C)nn2C)n1 [Compound 317]", "Recorded Result": 0}
{"Compound": "CCn1nc(C(C)(C)C)cc1C(=O)Nc1cncc(C(=O)N(C)C)c1 [Compound 258]", "Recorded Result": 30}
{"Compound": "CCn1nc(C(C)(C)C)cc1C(=O)Nc1cc(OCCF)ccc1F [Compound 350]", "Recorded Result": 0}
{"Compound": "CCn1nc(C(C)(C)C)c(F)c1C(=O)Nc1cccc(C(=O)N(C)C)n1 [Compound 274]", "Recorded Result": 40}
{"Compound": "CCn1nc(C(C)(C)C)cc1C(=O)Nc1cccc(OC(F)F)c1 [Compound 332]", "Recorded Result": 60}
{"Compound": "CCOC(=O)c1cccc(NC(=O)c2cc(C(C)(C)C)nn2C)n1 [Compound 313]", "Recorded Result": 30}
{"Compound": "C=CCN(C)C(=O)c1cccc(NC(=O)c2cc(C(C)(C)C)nn2CC)c1 [Compound 285]", "Recorded Result": 50}
{"Compound": "CCn1nc(C(C)(C)C)cc1C(=O)Nc1cc(C(=S)N(C)C)ccn1 [Compound 334]", "Recorded Result": 30}
{"Compound": "CCn1nc(C(C)(C)C)cc1C(=S)Nc1cc(C(=S)N(C)C)ccc1F [Compound 305]", "Recorded Result": 30}
{"Compound": "CCc1nn(C2CCCC2)nc1C(=O)Nc1cccc(C(=O)N2CC=CC2)c1 [Compound 354]", "Recorded Result": 20}

---

List of Plant response rating (0 to 100 scale), Foxtail, Giant values.
# System: giant foxtail
# Test Protocol: Test B pre-/postemergence herbicide test
# Type: in vivo, Setaria faberi
# Condition Parameters: 125 g ai/ha; 0 is no effect, 100 is complete control; preemergence
Measurement Type: Plant response rating (0 to 100 scale), Foxtail, Giant

{"Molecule": "CCc1nn(C(C)(C)C)nc1C(=O)Nc1cccc(C(=S)N(C)C)c1 [Compound 395]", "Recorded Result": 100}
{"Molecule": "C=CCNC(=O)c1ccc(F)c(NC(=O)c2nn(C(C)(C)C)nc2CC)c1 [Compound 383]", "Recorded Result": 10}
{"Molecule": "CCn1nc(C(C)(C)C)cc1C(=O)Nc1cc(OC)ccc1F [Compound 347]", "Recorded Result": 0}
{"Molecule": "CCNC(=O)c1ccc(F)c(NC(=O)c2nn(C(C)(C)CC)nc2CC)c1 [Compound 370]", "Recorded Result": 0}
{"Molecule": "CCOC(=O)c1cncc(NC(=O)c2nn(C(C)(C)C)nc2C)c1 [Compound 422]", "Recorded Result": 0}
{"Molecule": "Cc1nn(C(C)C)nc1C(=O)Nc1cc(C(=O)N(C)C)ccc1F [Compound 400]", "Recorded Result": 0}
{"Molecule": "CCN(C)C(=O)c1ccc(F)c(NC(=O)c2nn(C(C)C)nc2C)c1 [Compound 403]", "Recorded Result": 0}
{"Molecule": "CCC1=NN(C(C)(C)C)CC1C(=O)Nc1cc(C(=O)N(C)C)ccc1F (racemic) [Compound 343]", "Recorded Result": 30}
{"Molecule": "CCNC(=O)c1cccc(NC(=O)c2nn(C(C)(C)C)nc2C)c1 [Compound 392]", "Recorded Result": 80}
